Biological target: Cytochrome P450 3A4 (Homo sapiens) (UniProt P08684)
Sequence (P08684 whole entry, looked up): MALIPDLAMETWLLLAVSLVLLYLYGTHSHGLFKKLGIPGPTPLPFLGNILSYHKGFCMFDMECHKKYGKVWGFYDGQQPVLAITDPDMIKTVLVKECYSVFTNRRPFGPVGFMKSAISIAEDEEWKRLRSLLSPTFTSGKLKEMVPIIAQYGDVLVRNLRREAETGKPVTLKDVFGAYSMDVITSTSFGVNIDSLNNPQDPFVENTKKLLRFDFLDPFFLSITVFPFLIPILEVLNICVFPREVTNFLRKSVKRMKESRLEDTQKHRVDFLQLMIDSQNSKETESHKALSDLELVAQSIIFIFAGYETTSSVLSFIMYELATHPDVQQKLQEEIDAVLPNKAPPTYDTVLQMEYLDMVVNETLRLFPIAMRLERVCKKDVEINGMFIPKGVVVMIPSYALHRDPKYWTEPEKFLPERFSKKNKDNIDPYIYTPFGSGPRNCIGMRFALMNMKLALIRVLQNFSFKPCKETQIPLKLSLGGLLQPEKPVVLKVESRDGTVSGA
Experiment: Cytochrome panel assay with activity outcomes
Settings: recombinant CYP, pro-luciferin dealkylation, luminescence, p450-cyp3a4; series mostly up to 57.1 µM
Procedure: The P450 gene superfamily is involved in the metabolism and clearance of xenobiotics. This assay used various human CYP P450 isozymes to measure the dealkylation of various pro-luciferin substrates to luciferin. The luciferin is then measured by luminescence after the addition of a luciferase detection reagent. […] Inhibitors and some substrates limit the production of luciferin, and decrease measured luminescence. […] 8, Detection, 1 sec, ViewLux luminescent read […]
In all, about 16,000 compounds went through this assay and about 5,100 (32%) were called active. Another 25% or so got no clear call; they are omitted. The call rests on the fitted dose curve; in most records, active means well fitted curve in the direction sought with a large enough effect; inconclusive means small, poorly fitted or top-dose-only effect, or effect the other way; inactive means no such curve, though single readings can be large or run the other way. This is one part of the list.
Bench note: report the call from active, inactive

Query :: Hi, sorry to bother you, what did the test record for NC(=O)C1(NC(=O)[C@@H]2CC3(CC(c4cccc(NC(=O)c5cc([N+](=O)[O-])cc([N+](=O)[O-])c5)c4)=NO3)CN2C(=O)c2ccccc2)CC1 (stereo not given in full) ?
Result :: active

Query :: Which result was noted for this compound in the test: `Cc1cccc(C(=O)NC2CCN(C(=O)N3CCOCC3)CC2)c1`
Result :: inactive

Query :: Each compound tested received a call. Report the one for `O=C(CSCc1ccccc1)Nc1cccc(C(=O)Nc2ccccc2C(=O)O)c1` .
Result :: active

Query :: For this compound, state the assay outcome: `Cc1cccc(C(=O)NC2CCN(C(=S)NCc3ccco3)CC2)c1`
Result :: active

Query :: Hi, sorry to bother you, what did the test record for Brc1ccc(-c2csc(N3CCC(c4ccccc4)C3)n2)cc1 (stereo not given) ?
Result :: inactive

Query :: What did this assay record as the result for `O=C(NCc1ccccc1)c1sc(=S)n2c1[nH]c(=O)c1ccccc12` ?
Result :: active

Query :: Tell me the assay call for CCOC(=O)C1=NNC2(c3ccc(Cl)cc3)C(=O)N(c3cc(C)cc(C)c3)C(=O)C12 (stereo not given) please.
Result :: active

Query :: Lab log entry: `C[C@]1(c2ccccc2)O[C@@H]2C[C@@H]3[C@@H]4CCC5=CC(=O)C=C[C@@]5(C)[C@]4(F)[C@H](O)C[C@]3(C)[C@@]2(C(=O)CO)O1` — outcome as called in the assay?
Result :: active

Query :: Per the assay record, what outcome was assigned to COc1cc(C(=O)OC(C)C(=O)Nc2ccc3c(c2)OCO3)ccc1OCc1c(C)noc1C (stereo not given) ?
Result :: active

Query :: Could you kindly confirm the outcome this assay logged for `COCCN1CN=C(Nc2nc3ccccc3s2)NC1` ?
Result :: inactive

Query :: Kindly provide the recorded test outcome for the following compound: CCCNC(=O)CC(NS(=O)(=O)c1ccc(Cl)cc1)c1ccco1 (stereo not given)
Result :: active

Query :: For this compound, state the assay outcome: `Nc1nnc(SCCOc2cccc(Br)c2)s1`
Result :: active

Query :: # lookup: test call for `COc1cccc(NC(=S)NN2CCN(C)CC2)c1`
Result :: inactive

Query :: # outcome recorded in this test, key = `CC(C)CC(=O)N1CCN(Cc2cccc(F)c2)CC1`
Result :: inactive

Query :: Per the assay record, what outcome was assigned to COc1ccc(OC)c(C2C(C(=O)Nc3nc4ccccc4s3)=C(C)NC3=C2C(=O)CCC3)c1 (stereo not given) ?
Result :: active

Query :: Just curious, what result did `Cc1nn2c([nH]c(=O)c3ccccc32)c1C=O` get here?
Result :: inactive

Query :: Hi, do you know how `COC(=O)c1ccc(NC(=S)N2CCN(Cc3cccc(C)c3)CC2)cc1` came out in this test?
Result :: active

Query :: Hey, what did the test say about `C[C@]12C=CC(=O)C=C1CC[C@@H]1[C@H]3C[C@@H](O)[C@](O)(C(=O)CO)[C@@]3(C)C[C@H](O)[C@]12F` ?
Result :: inactive

Query :: Please share the test call associated with Cc1noc(C)c1COc1ccc(C(=O)NCC2CCCO2)cc1 (stereo not given) .
Result :: inactive

Query :: Kindly provide the recorded test outcome for the following compound: `COc1cccc(-c2csc(N3CCN(C(=S)Nc4ccccc4)CC3)n2)c1`
Result :: active
